Recorded HEK-Blue IL-18: EC50, one value per entry.
# assayed system: T1, IL-18 receptor (IL-18Rα/IL-18Rβ) overexpressed on HEK-Blue IL-18 cells (Homo sapiens (Human), UniProt Q13478 19-541; O95256 20-599)
# T1 sequence 1: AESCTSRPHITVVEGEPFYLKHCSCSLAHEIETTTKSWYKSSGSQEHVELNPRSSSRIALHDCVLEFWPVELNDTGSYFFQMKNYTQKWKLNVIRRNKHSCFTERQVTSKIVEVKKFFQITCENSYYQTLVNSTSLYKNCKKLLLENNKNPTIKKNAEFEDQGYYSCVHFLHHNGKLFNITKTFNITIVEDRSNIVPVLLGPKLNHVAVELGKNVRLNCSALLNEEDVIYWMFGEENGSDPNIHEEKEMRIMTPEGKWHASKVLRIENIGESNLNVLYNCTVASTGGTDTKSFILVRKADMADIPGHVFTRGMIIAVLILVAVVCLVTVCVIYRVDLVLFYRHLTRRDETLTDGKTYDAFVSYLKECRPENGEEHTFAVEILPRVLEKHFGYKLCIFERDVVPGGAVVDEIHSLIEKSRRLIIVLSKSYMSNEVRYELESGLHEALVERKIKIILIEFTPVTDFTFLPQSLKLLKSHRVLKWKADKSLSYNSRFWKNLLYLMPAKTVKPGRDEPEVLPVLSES
# T1 sequence 2: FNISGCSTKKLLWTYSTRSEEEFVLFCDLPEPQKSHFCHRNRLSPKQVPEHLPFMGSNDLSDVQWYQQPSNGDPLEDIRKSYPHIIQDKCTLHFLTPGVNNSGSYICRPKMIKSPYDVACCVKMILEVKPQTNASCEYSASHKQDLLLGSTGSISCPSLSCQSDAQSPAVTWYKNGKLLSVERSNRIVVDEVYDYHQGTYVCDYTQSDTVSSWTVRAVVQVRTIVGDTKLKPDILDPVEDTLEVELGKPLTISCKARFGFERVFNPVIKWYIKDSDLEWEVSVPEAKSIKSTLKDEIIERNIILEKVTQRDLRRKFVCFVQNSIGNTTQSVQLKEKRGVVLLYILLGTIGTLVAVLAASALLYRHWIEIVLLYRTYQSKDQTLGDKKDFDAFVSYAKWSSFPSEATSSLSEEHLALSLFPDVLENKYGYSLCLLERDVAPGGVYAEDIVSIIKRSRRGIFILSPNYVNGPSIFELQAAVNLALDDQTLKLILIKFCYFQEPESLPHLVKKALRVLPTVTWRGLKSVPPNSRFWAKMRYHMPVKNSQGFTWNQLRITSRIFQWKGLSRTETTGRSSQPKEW
# test protocol: cell-based or functional assay
Record the value in nM, omitting the unit from your answer.

INPUT: Look up and report measured HEK-Blue IL-18: EC50 for this entry: DGL092 (bispecific antibody, V domains shown) V domain 1: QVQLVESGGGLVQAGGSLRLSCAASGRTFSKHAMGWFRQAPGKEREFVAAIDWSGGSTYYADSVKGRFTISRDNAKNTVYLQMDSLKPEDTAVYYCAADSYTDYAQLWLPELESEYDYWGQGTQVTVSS V domain 2: EVQLVESGGGLVQAGGSLRLSCAASGRTFRNYHMGWFRQAPGQEREFVAAISSSGGKTSYPDSVNGRFTISRDNAKNTVYLQMNNLKVEDTAVYYCAADPRYWVAAGGSEPENVEVWGQGTLVTVSS
OUTPUT: 0.019

INPUT: Look up and report measured HEK-Blue IL-18: EC50 for this entry: DGL079 (bispecific antibody, V domains shown) V domain 1: EVQLVESGGGLVQAGGSLRLSCAASGRTFSNYDMGWFRQAPEKEREFVAVISGPGGIAFYGDSVKGRFTISRDNTKNTVYLQMNRLKSEDTAVYYCAAAPRGSYYRRTNSYDYWGQGTQVTVSS V domain 2: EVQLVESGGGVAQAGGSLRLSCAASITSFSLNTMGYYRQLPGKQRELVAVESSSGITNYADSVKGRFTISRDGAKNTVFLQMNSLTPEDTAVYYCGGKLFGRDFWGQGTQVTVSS
OUTPUT: 0.017

INPUT: Look up and report measured HEK-Blue IL-18: EC50 for this entry: DGL052 (bispecific antibody, V domains shown) V domain 1: QVQLQESGGGLVQPGGSLRLSCAASGFIFSNWYMRWVRQAPGEGLEWVSSINSGGDDTDYADSVKGRFTISRDNAKGTLYLQMHSLKPEDTALYYCERGADRVRGQGTQVTVSS V domain 2: QVQLVESGGDLVLPGGSLKLSCEASGSISSRNSMAWYRRAPGKQRELVAAISSISSGGRTDYADFVKGRFTIFRDTAKNMVYLQMNNLKPEDTAVYDCDDPIRVASLAYDDWGQGTQVTVSS
OUTPUT: 0.0041

Sourced from patent US20240209100A1
